molecular target: human serotonin 2C receptor (h-5-HT2C) (Homo sapiens (Human)); assay: 5-HT2C receptor agonistic action assay (FLIPR Calcium 4 Assay kit, h-5-HT2C/CHO cells); assay type: cell-based
Sequence (P28335 whole entry, looked up): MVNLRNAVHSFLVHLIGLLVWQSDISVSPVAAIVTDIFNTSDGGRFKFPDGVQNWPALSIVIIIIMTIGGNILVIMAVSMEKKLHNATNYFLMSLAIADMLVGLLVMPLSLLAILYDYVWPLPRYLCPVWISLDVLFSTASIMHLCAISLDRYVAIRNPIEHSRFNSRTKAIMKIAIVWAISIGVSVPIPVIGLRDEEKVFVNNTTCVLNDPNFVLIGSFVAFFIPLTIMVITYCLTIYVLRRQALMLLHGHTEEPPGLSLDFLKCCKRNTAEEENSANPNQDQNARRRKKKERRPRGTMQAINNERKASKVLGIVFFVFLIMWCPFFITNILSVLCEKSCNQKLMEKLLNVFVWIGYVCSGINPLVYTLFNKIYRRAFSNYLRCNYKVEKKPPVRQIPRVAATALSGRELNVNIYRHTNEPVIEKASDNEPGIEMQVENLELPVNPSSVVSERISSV
Test Ex. 3: 5-HT2C receptor agonistic action: recorded values
// note: answer is a bare numeric in %

>>> readout_number("CNCc1cc(OCc2ccccc2)n(CCCc2ccccc2)n1 [Example 3]")
"−91"
>>> readout_number("CNCc1cc(OCc2cc(F)ccc2F)n(CCC(C)(C)F)n1.Cl [Example 481]")
"−109"
>>> readout_number("CNCc1cc(OCc2ccccc2)n(C(C)C2CCCC2)n1.Cl (stereo not shown) [Example 288]")
"−80"
>>> readout_number("CCNCc1cc(OCc2cc(F)ccc2F)n(CC2CCCCC2)n1 [Example 344]")
"−82"

[Q] Recorded Test Ex. 3: 5-HT2C receptor agonistic action of CNCc1cc(OCc2ccc(F)cc2F)n(CC2CCCC2)n1 [Example 144] , please.
[A] −127

[Q] Try this molecule too: CNCc1cc(OCc2ccccc2)n(CC2CCCCC2)n1 [Example 5]
[A] −91

[Q] Moving on to CNCc1cc(OCc2cc(Cl)ccc2F)n(CCC(C)(C)OC)n1 [Example 275]
[A] −88
